biological target: W190/N192 FPR (Homo sapiens, UniProt P21462, R190W); experiment: biochemical; type: binding; settings: Ki (nM ± SEM) for binding of peptides to W190/N192 FPR
Sequence (P21462 whole entry R190W, looked up): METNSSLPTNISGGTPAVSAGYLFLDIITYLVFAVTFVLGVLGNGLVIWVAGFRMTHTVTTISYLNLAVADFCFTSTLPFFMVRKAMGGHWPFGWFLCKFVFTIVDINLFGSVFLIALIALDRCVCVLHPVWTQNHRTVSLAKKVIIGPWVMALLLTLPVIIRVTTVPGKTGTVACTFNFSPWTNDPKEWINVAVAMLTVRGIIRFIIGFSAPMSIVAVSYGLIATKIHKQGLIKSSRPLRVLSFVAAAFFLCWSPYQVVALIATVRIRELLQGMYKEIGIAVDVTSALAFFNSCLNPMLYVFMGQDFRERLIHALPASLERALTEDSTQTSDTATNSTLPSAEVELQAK
Residues, ends and D or L forms follow the SMILES beside them.
Overview of recorded Ki for various molecules
Report only the number, with the unit nM understood.

Below are worked cases with known answers.
• CSCC[C@H](NC(=O)[C@@H](N)CCSC)C(=O)N[C@@H](Cc1c[nH]c2ccccc12)C(=O)N[C@@H](CC(C)C)C(=O)N[C@@H](CC(C)C)C(=O)O [MMWLL, reference compound] (H-MMWLL-OH) = 840
• CC(C)C[C@H](NC(=O)[C@H](CO)NC(=O)[C@H](C)NC(=O)[C@H](Cc1c[nH]c2ccccc12)NC(=O)[C@H](CCCCN)NC(=O)[C@H](CC(=O)O)NC(=O)[C@H](CC(C)C)NC(=O)[C@@H](N)CCC(=O)O)C(=O)N[C@@H](Cc1c[nH]c2ccccc12)C(=O)N[C@@H](CC(N)=O)C(=O)N[C@@H](Cc1c[nH]c2ccccc12)C(=O)N[C@@H](Cc1ccccc1)C(=O)O (H-ELDKWASLWNWF-OH) = 1050
• CSCC[C@H](N)C(=O)N[C@@H](Cc1ccc(O)cc1)C(=O)N[C@H](C(=O)N[C@@H](CCCCN)C(=O)N[C@@H](Cc1c[nH]c2ccccc12)C(=O)N1CCC[C@H]1C(=O)N[C@@H](Cc1c[nH]c2ccccc12)C(=O)N[C@@H](Cc1ccc(O)cc1)C(=O)N[C@H](C(=O)N[C@@H](Cc1c[nH]c2ccccc12)C(=O)N[C@@H](CC(C)C)C(=O)O)C(C)C)C(C)C (H-MYVKWPWYVWL-OH) = 263

Identify the measured Ki of CC(C)C[C@H](NC(=O)[C@@H](N)CCCCN)C(=O)N[C@@H](CC(N)=O)C(=O)N[C@@H](CO)C(=O)N[C@@H](Cc1c[nH]c2ccccc12)C(=O)N[C@@H](CC(=O)O)C(=O)N[C@H](C(=O)N[C@@H](Cc1ccccc1)C(=O)NCC(=O)N[C@@H](CC(N)=O)C(=O)N[C@@H](Cc1c[nH]c2ccccc12)C(=O)N[C@@H](Cc1ccccc1)C(=O)O)C(C)C for W190/N192 FPR (Homo sapiens, UniProt P21462, R190W).
4700

====

target: R190/K192 FPR (Homo sapiens, UniProt P21462, N192K); assay: biochemical; type: biochemical
Non-standard residues stand in square brackets, D forms with d. Residues, ends and D or L forms follow the SMILES beside them. *: point of attachment. Nle = CCCC[C@H](N)C(=O)O; For = O=C*
metric: stimulation of GTPγS binding

* CCCC[C@H](NC=O)C(=O)N[C@@H](CC(C)C)C(=O)N[C@@H](Cc1ccccc1)C(=O)O [Formyl-NleLeuPhe, Formyl-Nle–Leu–Phe, reference compound] (For-[Nle]-Leu-Phe-OH) | stimulated GTPγS binding
* CSCC[C@H](NC=O)C(=O)N[C@@H](Cc1ccc(O)cc1)C(=O)N[C@H](C(=O)N[C@@H](CCCCN)C(=O)N[C@@H](Cc1c[nH]c2ccccc12)C(=O)N1CCC[C@H]1C(=O)N[C@@H](Cc1c[nH]c2ccccc12)C(=O)N[C@@H](Cc1ccc(O)cc1)C(=O)N[C@H](C(=O)N[C@@H](Cc1c[nH]c2ccccc12)C(=O)N[C@@H](CC(C)C)C(=O)O)C(C)C)C(C)C (For-MYVKWPWYVWL-OH) | stimulated GTPγS binding

====

Reported pKi values are given for each entry in this list.
target: R190/K192 FPR (Homo sapiens, UniProt P21462, N192K); assay: biochemical
Residues, ends and D or L forms follow the SMILES beside them. *: point of attachment. For = O=C*
Interpret pKi as the negative base-10 log of the concentration measured in mol/L.

* CSCC[C@H](NC(=O)[C@@H](N)CCSC)C(=O)N[C@@H](Cc1c[nH]c2ccccc12)C(=O)N[C@@H](CC(C)C)C(=O)N[C@@H](CC(C)C)C(=O)O [MMWLL, reference compound] (H-MMWLL-OH) | 6.72

Next, consider the following compound.
I am curious: what pKi value has been reported for CSCC[C@H](NC=O)C(=O)N[C@@H](Cc1ccc(O)cc1)C(=O)N[C@H](C(=O)N[C@@H](CCCCN)C(=O)N[C@@H](Cc1c[nH]c2ccccc12)C(=O)N1CCC[C@H]1C(=O)N[C@@H](Cc1c[nH]c2ccccc12)C(=O)N[C@@H](Cc1ccc(O)cc1)C(=O)N[C@H](C(=O)N[C@@H](Cc1c[nH]c2ccccc12)C(=O)N[C@@H](CC(C)C)C(=O)O)C(C)C)C(C)C (For-MYVKWPWYVWL-OH) ?
6.87

====

molecular target: W190/N192 FPR (Homo sapiens, UniProt P21462, R190W); assay: biochemical; assay type: biochemical
Non-standard residues stand in square brackets, D forms with d. Residues, ends and D or L forms follow the SMILES beside them. *: point of attachment. Nle = CCCC[C@H](N)C(=O)O; For = O=C*
metric: stimulation of GTPγS binding

- CSCC[C@H](NC=O)C(=O)N[C@@H](Cc1ccc(O)cc1)C(=O)N[C@H](C(=O)N[C@@H](CCCCN)C(=O)N[C@@H](Cc1c[nH]c2ccccc12)C(=O)N1CCC[C@H]1C(=O)N[C@@H](Cc1c[nH]c2ccccc12)C(=O)N[C@@H](Cc1ccc(O)cc1)C(=O)N[C@H](C(=O)N[C@@H](Cc1c[nH]c2ccccc12)C(=O)N[C@@H](CC(C)C)C(=O)O)C(C)C)C(C)C (For-MYVKWPWYVWL-OH): stimulated GTPγS binding
- CCCC[C@H](NC=O)C(=O)N[C@@H](CC(C)C)C(=O)N[C@@H](Cc1ccccc1)C(=O)O [Formyl-NleLeuPhe, Formyl-Nle–Leu–Phe, reference compound] (For-[Nle]-Leu-Phe-OH): stimulated GTPγS binding

====

target: R190/K192 FPR (Homo sapiens, UniProt P21462, N192K); assay: biochemical
Below, each entry is listed alongside its reported Ki.
Express it in nM; write the number only.

Entry CC[C@H](C)[C@H](NC(=O)[C@H](Cc1ccc(O)cc1)NC(=O)[C@@H](NC(=O)[C@@H](N)CCC(=O)O)[C@@H](C)O)C(=O)N[C@@H](CCCCN)C(=O)N[C@@H](Cc1c[nH]c2ccccc12)C(=O)N1CCC[C@H]1C(=O)N[C@@H](Cc1c[nH]c2ccccc12)C(=O)N[C@@H](Cc1c[nH]c2ccccc12)C(=O)N[C@H](C(=O)N[C@@H](Cc1c[nH]c2ccccc12)C(=O)N[C@@H](CC(C)C)C(=O)O)C(C)C : reported Ki = ?
370

====

biological target: R190/N192 FPR (Homo sapiens); test: biochemical
Sequence (P21462 whole entry, looked up): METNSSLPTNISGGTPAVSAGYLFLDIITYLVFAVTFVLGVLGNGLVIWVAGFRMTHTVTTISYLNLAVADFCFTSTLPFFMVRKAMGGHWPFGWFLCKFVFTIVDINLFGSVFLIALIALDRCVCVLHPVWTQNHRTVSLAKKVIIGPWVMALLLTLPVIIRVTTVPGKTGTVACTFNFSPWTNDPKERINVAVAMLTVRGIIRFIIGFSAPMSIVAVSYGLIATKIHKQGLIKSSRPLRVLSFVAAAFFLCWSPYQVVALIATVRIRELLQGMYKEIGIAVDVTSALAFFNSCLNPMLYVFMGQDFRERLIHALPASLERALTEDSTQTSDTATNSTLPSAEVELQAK
pKi: −log10 of the molar value. Residues, ends and D or L forms follow the SMILES beside them. *: point of attachment. For = O=C*
Rule: True for pKi not less than 6, False for anything less.

* CC[C@H](C)[C@H](NC(=O)[C@H](Cc1ccc(O)cc1)NC(=O)[C@@H](NC(=O)[C@@H](N)CCC(=O)O)[C@@H](C)O)C(=O)N[C@@H](CCCCN)C(=O)N[C@@H](Cc1c[nH]c2ccccc12)C(=O)N1CCC[C@H]1C(=O)O [ETYIKWP] (H-ETYIKWP-OH) | False
* CC(C)C[C@H](NC(=O)[C@@H](N)CCCCN)C(=O)N[C@@H](CC(N)=O)C(=O)N[C@@H](CO)C(=O)N[C@@H](Cc1c[nH]c2ccccc12)C(=O)N[C@@H](CC(=O)O)C(=O)N[C@H](C(=O)N[C@@H](Cc1ccccc1)C(=O)NCC(=O)N[C@@H](CC(N)=O)C(=O)N[C@@H](Cc1c[nH]c2ccccc12)C(=O)N[C@@H](Cc1ccccc1)C(=O)O)C(C)C | False
* CSCC[C@H](NC=O)C(=O)N[C@@H](Cc1ccc(O)cc1)C(=O)N[C@H](C(=O)N[C@@H](CCCCN)C(=O)N[C@@H](Cc1c[nH]c2ccccc12)C(=O)N1CCC[C@H]1C(=O)N[C@@H](Cc1c[nH]c2ccccc12)C(=O)N[C@@H](Cc1ccc(O)cc1)C(=O)N[C@H](C(=O)N[C@@H](Cc1c[nH]c2ccccc12)C(=O)N[C@@H](CC(C)C)C(=O)O)C(C)C)C(C)C (For-MYVKWPWYVWL-OH) | True
* CC[C@H](C)[C@H](NC(=O)[C@H](Cc1ccc(O)cc1)NC(=O)[C@@H](NC(=O)[C@@H](N)CCC(=O)O)[C@@H](C)O)C(=O)N[C@@H](CCCCN)C(=O)N[C@@H](Cc1c[nH]c2ccccc12)C(=O)N1CCC[C@H]1C(=O)N[C@@H](Cc1c[nH]c2ccccc12)C(=O)N[C@@H](Cc1c[nH]c2ccccc12)C(=O)N[C@H](C(=O)N[C@@H](Cc1c[nH]c2ccccc12)C(=O)N[C@@H](CC(C)C)C(=O)O)C(C)C | True

Now turn to the next compound.
Say whether CSCC[C@H](NC(=O)[C@@H](N)CCSC)C(=O)N[C@@H](Cc1c[nH]c2ccccc12)C(=O)N[C@@H](CC(C)C)C(=O)N[C@@H](CC(C)C)C(=O)O [MMWLL, reference compound] (H-MMWLL-OH) shows pKi of 6 or more.
True
